Please go through the items and note down their cleaved RNA product abundance.
- Test system: Bacillus subtilis
- Method notes: cleaved RNA product abundance (RNA/gDNA barcode ratio) relative to median wild-type variant (ratio to wild type); higher = more accumulation of the downstream cleavage product
- Assay conditions: experiment (reporter, strain, medium): exp 4a: truncated aprE reporter, strain BJT201 with 2% xylose (RNase J1 expressed); cleavage site: cggR-gapA (positions -7 to +36 mutated)

Lab note: ACAGACGAAGGAGCCGCAAAGAAGTTATTAAGGGATTAATAATCCCTTAATATAAATATCTCTCACTTATTTAAA gave cleaved RNA product abundance of 0.563

Lab note: ACAGACGAAGGAGCCGCAAAGAAGTTATTAAGGGATCAATAATCCCTCAATATAAATACCTCTCACTTATTTAAA gave cleaved RNA product abundance of 0.36

Lab note: ACAGACGAAGGAGCCGCAAAGAAATTATTAAGGGATGAATAATCTCTCAATATAAATATCTCTCACTTATTTAAA gave cleaved RNA product abundance of 0.476

Lab note: ACAGACGAAGGAGCCGCTAAGAAGCTATTAAGGGATGAATAATCCCTCAATATAAATATCTCTCACTTATTTAAA gave cleaved RNA product abundance of 0.52

* * *

- Test system: Bacillus subtilis
- Method notes: cleaved RNA product abundance (RNA/gDNA barcode ratio) relative to median wild-type variant (ratio to wild type); higher = more accumulation of the downstream cleavage product
- Assay conditions: experiment (reporter, strain, medium): exp 4a: truncated aprE reporter, strain BJT201 with 2% xylose (RNase J1 expressed); cleavage site: cggR-gapA (positions -7 to +36 mutated)
Readout: cleaved RNA product abundance
Just the number.

Lab note: ACAGACGAAGGAGCCGCAAAGAAGTTATTAAGGGATGAATAATCCCTGAAGATAAATATCTCTCACTTATTTAAA gave cleaved RNA product abundance of 0.387

Lab note: ACAGACGAAGGAGCCGCAAAGAAGTTATTACGGGATGAATAATCCCTCAATATAAATCTCTCTCACTTATTTAAA gave cleaved RNA product abundance of 0.368

Lab note: ACAGACGAAGGAGCCGCAAAGAAATTATTAAGGGATGAATAATCCCGCAATATAAATATCTCTCACTTATTTAAA gave cleaved RNA product abundance of 0.214

Lab note: ACAGACGAAGGAGCCGCAAAGAAGATATTAACGGATGAATAATCCCTCAATATAAATATCTCTCACTTATTTAAA gave cleaved RNA product abundance of 0.207

Lab note: ACAGACGAAGGAGCCGCAATGAAGTTATTAAGGGATGTATAATCCCTCAATATAAATATCTCTCACTTATTTAAA gave cleaved RNA product abundance of 1.53

Lab note: ACAGACGAAGGAGCCGCAAAGAAATTATTAAGGGATGAATAATCCATCAAGATAAATATCTCTCACTTATTTAAA gave cleaved RNA product abundance of 0.118

Lab note: ACAGACGAAGGAGCCGCAAAGAAGTTATTAAGGAATTAATAATCCCTCAATATAAATATCTCTCACTTATTTAAA gave cleaved RNA product abundance of 0.137

* * *

- Test system: Bacillus subtilis
- Method notes: cleaved RNA product abundance (RNA/gDNA barcode ratio) relative to median wild-type variant (ratio to wild type); higher = more accumulation of the downstream cleavage product
- Assay conditions: experiment (reporter, strain, medium): exp 8a: truncated aprE reporter, strain BJT201 with 2% xylose (RNase J1 expressed); cleavage site: glnRA (positions -5 to +31 mutated)
Readout: cleaved RNA product abundance
Just the number.

Lab note: CGACATGTCCCGCTTCTTTCATTAACCCGTTAGCAACTGTTTTGCTATATACATTTACCTTTTAAGAGGAGGAAT gave cleaved RNA product abundance of 0.819

Lab note: CGACATGTCCCGCTTCTTTCATTACTCCGTTAGCAGCTGTTTTGCTATATACATTTACCTTTTAAGAGGAGGAAT gave cleaved RNA product abundance of 0.827

Lab note: CGACATGTCCCGCTTCTTTCATTATTCCGTTAGCAACTGTTTTGCTATATACATATACCTTTTAAGAGGAGGAAT gave cleaved RNA product abundance of 1.59

Lab note: CGACATGTCCCGCTTCTTTCATTAATCCGTTATCAACTGTTTTGCTATAGACATTTACCTTTTAAGAGGAGGAAT gave cleaved RNA product abundance of 0.206

Lab note: CGACATGTCCCGCTTCTTTCATTACTCCGTTTACAACTGTTTTGCTATATACATTTACCTTTTAAGAGGAGGAAT gave cleaved RNA product abundance of 0.368

Lab note: CGACATGTCCCGCTTCTTTCATTAATTCGTTACCAACTGTTTTGCTATATACATTTACCTTTTAAGAGGAGGAAT gave cleaved RNA product abundance of 0.231

Lab note: CGACATGTCCCGCTTCTTTCATTAATCCGTTAGCAACTGTTTTGCCACGTACATTTACCTTTTAAGAGGAGGAAT gave cleaved RNA product abundance of 0.0527

* * *

- Tested on: Bacillus subtilis
- Method notes: cleaved RNA product abundance (RNA/gDNA barcode ratio) relative to median wild-type variant (ratio to wild type); higher = more accumulation of the downstream cleavage product
- Assay conditions: experiment (reporter, strain, medium): exp 2b: truncated aprE reporter, strain BJT200; cleavage site: cggR-gapA (positions -7 to +36 mutated)
Readout: cleaved RNA product abundance
Just the number.

Reading of cleaved RNA product abundance for ACAGACGAAGGAGCCGCAAAGAAATTATTAAGGGATGAATAATCCCTCATTATAAATATCTCTCACTTATTTAAA with Bacillus subtilis: 0.197

Reading of cleaved RNA product abundance for ACAGACGAAGGAGCCGCAAAGAAGTTATCAAGAGATGAATAATCCCTCAATATAAATATCTCTCACTTATTTAAA with Bacillus subtilis: 0.0893

Reading of cleaved RNA product abundance for ACAGACGAAGGAGCCGCAAAGAAGTTATTAAGGGATGAATAATCCATCAATAAAAATATCTCTCACTTATTTAAA with Bacillus subtilis: 0.11

Reading of cleaved RNA product abundance for ACAGACGAAGGAGCCGCAAAGAAGTCATTAAGAGATGAATAATCCCTCAATATAAATATCTCTCACTTATTTAAA with Bacillus subtilis: 0.108

Reading of cleaved RNA product abundance for ACAGACGAAGGAGCCGCAAAGAAGTTATTAAGGGATGAATAATCCCTGAATATAAATATCTCTCACTTATTTAAA with Bacillus subtilis: 0.566

Reading of cleaved RNA product abundance for ACAGACGAAGGAGCCGCAAAGAAGTTATTAAGGTATTAATAATCCCTCAATATAAATATCTCTCACTTATTTAAA with Bacillus subtilis: 0.0984

Reading of cleaved RNA product abundance for ACAGACGAAGGAGCCGCAAAGAATTTATTAAGGGATGAATAATCCCTCAATTTAAATATCTCTCACTTATTTAAA with Bacillus subtilis: 0.154

Reading of cleaved RNA product abundance for ACAGACGAAGGAGCCGCAAAGAAGTTATTAAGGGAAGAATAATCCTTCAATATAAATATCTCTCACTTATTTAAA with Bacillus subtilis: 0.13

Reading of cleaved RNA product abundance for ACAGACGAAGGAGCCGCAAAGAAGTTACTAAGGGATTAATAATCCCTCAATATAAATATCTCTCACTTATTTAAA with Bacillus subtilis: 0.169

Reading of cleaved RNA product abundance for ACAGACGAAGGAGCCGCAAAGAAGTTATAAAGGGTTGAATAATCCCTCAATATAAATATCTCTCACTTATTTAAA with Bacillus subtilis: 0.163

Reading of cleaved RNA product abundance for ACAGACGAAGGAGCCGCAAAGAAGTTATTAAGGGATGAATAATCCCTCAATACAAATATCTCTCACTTATTTAAA with Bacillus subtilis: 0.117

Reading of cleaved RNA product abundance for ACAGACGAAGGAGCCGCAAATAAGTTATTAAAGGATGAATAATCCCTCAATATAAATATCTCTCACTTATTTAAA with Bacillus subtilis: 0.195

Reading of cleaved RNA product abundance for ACAGACGAAGGAGCCGCAAAGAAGTTATTAAGGAATGAATAATCCCTCAATATAAATACCTCTCACTTATTTAAA with Bacillus subtilis: 0.0997

Reading of cleaved RNA product abundance for ACAGACGAAGGAGCCGCAAAGAAGTTATTAATGGATGAATAATCCCTCAATATAAATAACTCTCACTTATTTAAA with Bacillus subtilis: 0.115

Reading of cleaved RNA product abundance for ACAGACGAAGGAGCCGCCAAGAAGTTATTAAGGGATGAATAATCCCTCACTATAAATATCTCTCACTTATTTAAA with Bacillus subtilis: 0.191

* * *

- Tested on: Bacillus subtilis
- Method notes: cleaved RNA product abundance (RNA/gDNA barcode ratio) relative to median wild-type variant (ratio to wild type); higher = more accumulation of the downstream cleavage product
- Assay conditions: experiment (reporter, strain, medium): exp 2b: truncated aprE reporter, strain BJT200; cleavage site: cggR-gapA (positions -7 to +36 mutated)
Readout: cleaved RNA product abundance

Lab note: ACAGACGAAGGAGCCGCAAAGAAACTATTAAGGGATGAATAATCCCTCAATATAAATATCTCTCACTTATTTAAA gave cleaved RNA product abundance of 0.644

Lab note: ACAGACGAAGGAGCCGCAAAGAAGTTATTTAGGCATGAATAATCCCTCAATATAAATATCTCTCACTTATTTAAA gave cleaved RNA product abundance of 0.0926

Lab note: ACAGACGAAGGAGCCGCAAAAAAGTTATTAAGGGATCAATAATCCCTCAATATAAATATCTCTCACTTATTTAAA gave cleaved RNA product abundance of 0.923

Lab note: ACAGACGAAGGAGCCGCAAAGAAGTTATTAAGGCATTAATAATCCCTCAATATAAATATCTCTCACTTATTTAAA gave cleaved RNA product abundance of 0.0847
